system: SNB-19 CNS; assay: NCI tumour cell line growth inhibition, 48 h
Property: TGI; scope: individual compounds
Give just the numeric value; µM need not be written.

COc1ccc(-c2cc(C(=O)N=Nc3c(O)[nH]c4ccccc34)c3ccccc3n2)cc1: 23

# get_value(readout='TGI', item= Cc1nn(-c2ccccc2)c2nc(C)n(CC(=O)N/N=C/c3ccccc3O)c(=O)c12 )
39.2

====

system: MDA-MB-468 breast; assay: NCI tumour cell line growth inhibition, 48 h
Property name: GI50

Please review the entries below; each comes with its answer.
Cc1cccc(Oc2nccc(-c3c(-c4ccc(F)cc4)ncn3C3CCNCC3)n2)c1C: 2950 nM
COc1ccc(Nn2c(SCC(=O)Nc3nc(-c4ccc(Cl)cc4)cs3)nc(C)c2C)cc1: 574 nM

Attention now shifts to the item below.
# get_value(readout='GI50', item= NC(CSC(c1ccccc1)(c1ccccc1)c1ccc(Cl)cc1)C(=O)O (stereo not drawn) )
81.9 nM
